biological target: DNA polymerase beta (Homo sapiens); assay: qHTS Assay for Inhibitors of DNA Polymerase Beta; conditions: Pol beta primer extension/strand displacement, fluorescence kinetic; series mostly up to 114 µM
Among all 340,000 compounds or so, about 4,500 (1.3%) were called active. Inconclusive results (about 5%) are left out. Calls come from the whole dose curve; as a rule, active = well fitted inhibition curve with a large enough effect; inconclusive = small, poorly fitted or top-dose-only effect, or another doubt; inactive = no such curve, though single readings can be large or run the other way. The sample as a whole holds a higher share of actives than the screen did.
Hi there, use one of these labels in your reply, thanks! y for active, n for inactive

Outcome logged for Cc1cccc(N2CCN(S(=O)(=O)c3ccc4[nH]c(=O)c(=O)[nH]c4c3)CC2C)c1 (centres undefined) in this assay:
y

Outcome logged for `O=C(O)c1ccc2c(c1)C(=O)N(NC(=O)c1ccc(O)cc1)C2=O` in this assay:
n

Outcome logged for `N#Cc1c(-c2ccccc2)cc(-c2ccccc2)nc1SCC(=O)O` in this assay:
n

Outcome logged for `O=C(CSC(=S)N1CCOCC1)c1ccccc1` in this assay:
n

// provenance: PubChem BioAssay AID485314
